The values you see were collected from PubChem BioAssay (NCI).

Test system: NCI-H23 lung
protocol.details: NCI tumour cell line growth inhibition, 48 h
measured.metric: GI50

Some solved entries appear below for comparison.
{"mol.smiles": "c1ccc(-c2nc3ccccc3[nH]2)c(OCCCCCOc2ccccc2-c2nc3ccccc3[nH]2)c1", "GI50": "13100 nM"}
{"mol.smiles": "COc1ccc(-c2nc3sccn3c2/C=C/C(=O)c2cc(OC)c(OC)c(OC)c2)cc1", "GI50": "2490 nM"}

Let us examine a further case.
Ask: Given `O=[N+]([O-])/C(=C/C=C/c1ccccc1)c1ccccc1` , state its recorded GI50.
Result: 2250 nM

* * *

Test system: SN12C renal
protocol.details: NCI tumour cell line growth inhibition, 48 h
measured.metric: TGI

Some solved entries appear below for comparison.
{"compound": "Clc1ccc(/C=C/c2csnn2)cc1", "TGI": "> 100 µM"}
{"compound": "CCCCCCCC(=O)OC[n+]1cccc(-c2c(COC(=O)NC(C)C)c(COC(=O)NC(C)C)c3n2CCC3)c1", "TGI": "> 100 µM"}
{"compound": "CN(C)CC(=O)N1CCc2c([nH]c3ccccc23)C1c1cccnc1 (stereo unspecified)", "TGI": "> 100 µM"}
{"compound": "CCOC1OC(C)(C=C(C#N)C#N)CCC1C (stereo unspecified)", "TGI": "> 86.6 µM"}
{"compound": "FC(F)(Sc1ncccn1)c1nc2ccccc2o1", "TGI": "> 100 µM"}

Let us examine a further case.
Ask: Given `O=[N+]([O-])/C=C/c1cn(CCCCCCCCn2cc(/C=C/[N+](=O)[O-])c3ccccc32)c2ccccc12` , state its recorded TGI.
Result: > 10 µM
